molecular target: mouse HER2 (23-653) (Mus musculus, UniProt P70424); assay: Surface plasmon resonance (SPR) for assessment of peptide affinity, mouse HER2; format: binding; set-up: mouse HER2 (23-653) using a Cy5 labeled peptide as a probe; made in house; conditions: SPR, mouse HER2 extracellular domain, 25° C., 1:1 binding model; read-out: moHER2-SPR-ONC KD
ENDPOINT LABEL: Kd (nM)
Expressed in nM, but write only the number.

Input line: Entry CC(=O)N[C@H]1CCCC(=O)NC[C@@H](C(=O)N(C)[C@@H](Cc2ccc(F)cc2)C(=O)N[C@@H](CCCCNC(=O)CN2CCN(CC(=O)O)CCN(CC(=O)O)CCN(CC(=O)O)CC2)C(N)=O)N(C)C(=O)[C@H]([C@H](C)O)NC(=O)[C@H](Cc2c[nH]c3ccccc23)NC(=O)[C@H](Cc2c[nH]c3ccc(O)cc23)NC(=O)[C@H](CCCCNC(=O)CO)N(C)C(=O)[C@H](CCc2ccccc2)N(C)C(=O)[C@H](CO)NC(=O)[C@H](Cc2ccc(O)cc2)NC1=O [Example B6] , system mouse HER2 (23-653) (Mus musculus, UniProt P70424): what Kd was measured?
Output line: 1.2

Input line: Same thing, different compound: CC(=O)NCCCC[C@H]1C(=O)N[C@@H](Cc2c[nH]c3ccc(O)cc23)C(=O)N[C@@H](Cc2c[nH]c3ccccc23)C(=O)N[C@@H](C2CC2)C(=O)N(C)[C@H](C(=O)N(C)[C@@H](Cc2ccc(F)cc2)C(=O)N[C@@H](CCCCNC(=O)c2ccc(F)nc2)C(N)=O)CNC(=O)CCC[C@H](NC(C)=O)C(=O)N[C@@H](Cc2ccc(O)cc2)C(=O)N[C@@H](CO)C(=O)N(C)[C@@H](CCc2ccccc2)C(=O)N1C
Output line: 0.3

Input line: Let us now turn to CC(=O)N[C@H]1CCCC(=O)NC[C@@H](C(=O)N(C)[C@@H](Cc2ccc(F)cc2)C(=O)N[C@@H](CCCCNC(=O)CN2CCN(CC(=O)O)CCN(CC(=O)O)CCN(CC(=O)O)CC2)C(N)=O)N(C)C(=O)[C@H](C2CC2)NC(=O)[C@H](Cc2c[nH]c3ccccc23)NC(=O)[C@H](Cc2c[nH]c3ccc(O)cc23)NC(=O)[C@H](CCCCNC(=O)CC(=O)O)N(C)C(=O)[C@H](CCc2ccccc2)N(C)C(=O)[C@H](CO)NC(=O)[C@H](Cc2ccc(O)cc2)NC1=O
Output line: 10

Sourced from patent US20250332300A1
